Listed next: entries and their corresponding koff.
biological target: T1, human SIRPγ isoform 1 (human, UniProt Q9P1W8 29-147); assay: SPR
T1 construct: also called Gamma; Human SIRPg
T1 sequence (Q9P1W8 29-147 limits assumed): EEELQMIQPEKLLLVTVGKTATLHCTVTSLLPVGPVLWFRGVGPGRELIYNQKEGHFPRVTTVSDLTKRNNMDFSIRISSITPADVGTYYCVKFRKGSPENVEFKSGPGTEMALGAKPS
Just the number please, in s⁻¹, no unit attached.

Hum3/AB21_HC_wt (antibody, V domains shown) VH: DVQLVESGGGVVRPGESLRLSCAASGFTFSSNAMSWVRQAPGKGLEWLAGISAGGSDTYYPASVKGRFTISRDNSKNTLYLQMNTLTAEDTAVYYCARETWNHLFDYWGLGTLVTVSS VL: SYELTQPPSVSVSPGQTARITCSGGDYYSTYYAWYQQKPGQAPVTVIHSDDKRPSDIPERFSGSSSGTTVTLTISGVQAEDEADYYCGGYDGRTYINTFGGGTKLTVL: 0.00021

Given item antibody 27 (antibody, V domains shown, also called AB27; S27) VH: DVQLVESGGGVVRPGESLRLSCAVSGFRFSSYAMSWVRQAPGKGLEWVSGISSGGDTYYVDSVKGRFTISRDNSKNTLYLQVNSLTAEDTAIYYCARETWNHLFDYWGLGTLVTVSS VL: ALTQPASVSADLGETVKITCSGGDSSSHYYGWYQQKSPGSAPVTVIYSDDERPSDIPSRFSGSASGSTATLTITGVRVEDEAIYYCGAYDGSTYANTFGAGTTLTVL , the value recorded as its koff is 0.000407

Given item antibody 21 (antibody, V domains shown, also called AB21; S21) VH: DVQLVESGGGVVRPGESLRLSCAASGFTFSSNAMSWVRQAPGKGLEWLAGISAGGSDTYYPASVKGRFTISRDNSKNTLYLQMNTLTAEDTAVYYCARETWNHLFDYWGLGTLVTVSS VL: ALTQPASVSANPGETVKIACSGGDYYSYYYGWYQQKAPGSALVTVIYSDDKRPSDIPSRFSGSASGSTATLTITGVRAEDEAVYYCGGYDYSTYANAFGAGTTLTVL , the value recorded as its koff is 0.000902

Given item Hum3/AB27_HC_wt (antibody, V domains shown) VH: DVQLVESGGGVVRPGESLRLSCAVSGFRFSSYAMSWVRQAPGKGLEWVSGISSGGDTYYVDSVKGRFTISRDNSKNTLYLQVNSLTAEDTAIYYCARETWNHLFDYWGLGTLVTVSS VL: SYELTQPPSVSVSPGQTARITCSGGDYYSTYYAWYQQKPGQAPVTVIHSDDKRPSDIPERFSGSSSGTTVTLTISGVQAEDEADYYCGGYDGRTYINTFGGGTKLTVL , the value recorded as its koff is 0.000207
